test: Plasma pharmacokinetics in mice; format: in vivo; conditions: mouse, po, single dose 120 mg/kg by gavage
readout-label: half-life (h)
One number for each entry, in h.

Query block: Please give the documented half-life of CCCCCCCCc1ccc([C@H]2CCN[C@@H]2CO)cc1.Cl [compound 893]
Result block: 10.6
